Where these numbers come from: ChEMBL document CHEMBL1201862

System: SK-MEL-5
METHOD DESCRIPTION: NCI tumour cell line growth inhibition, 48 h
Calls of active or inactive are those of the source. No stated cut-off is given here; in the data, active = GI50 up to about 1.1 µM and inactive = higher.
PROPERTY LABEL: GI50

Recorded GI50 (compound O=C1[C@H]2ON(c3ccccc3)C(c3ccccc3F)[C@H]2C(=O)N1c1ccc(Cc2ccc(N3C(=O)[C@@H]4ON(c5ccccc5)C(c5ccccc5F)[C@@H]4C3=O)cc2)cc1 (stereo not given in full) ): > 100 µM (inactive)

Recorded GI50 (compound C#CCNC(=O)NC(CCCNC(=O)OCc1ccccc1)C(=O)OCc1ccccc1 (stereo not given) ): 84.1 µM (inactive)

Recorded GI50 (compound N#CC(C#N)=C1CCC2C(=C(C#N)C#N)CCC12 (stereo not given) ): > 100 µM (inactive)

Recorded GI50 (compound CSC1(CC(=O)N2CCCCC2)C(=O)Nc2ccccc21 (stereo not given) ): > 100 µM (inactive)

Recorded GI50 (compound COC1=CC(=O)OC(/C=C(C)/C=C/C2=C(C)CCCC2(C)C)C1 (stereo not given) ): > 100 µM (inactive)

Recorded GI50 (compound `CCOC(=O)c1cc2c(C(=O)c3ccc([N+](=O)[O-])cc3)c(C(C)=O)ccc2[nH]1` ): 16.6 µM (inactive)

Recorded GI50 (compound `Clc1cccc(Cl)c1C(Nc1nncs1)Nc1nncs1` ): 32.5 µM (inactive)

Recorded GI50 (compound `Clc1ccccc1C(Nc1cnccn1)Nc1cnccn1` ): > 100 µM (inactive)

Recorded GI50 (compound `CN(C)c1ccc(/C=N/NC2=N/C(=C\c3ccco3)C(=O)N2)cc1` ): > 100 µM (inactive)

Recorded GI50 (compound `CCCCCCc1cc2cc(C(=O)Nc3ccccc3)c(=N)oc2cc1O` ): 2.56 µM (inactive)

---

I'd be grateful if you could share measured GI50 for these entries.
Test system: HOP-62
METHOD DESCRIPTION: NCI tumour cell line growth inhibition, 48 h
Active and inactive are the calls of the source. Rule as the data show it: active = GI50 up to about 1.1 µM and inactive = higher.

Recorded GI50 (compound `O=c1oc2c(O)c(O)c(O)c3c(=O)oc4c(O)c(O)cc1c4c23` ): > 100 µM (inactive)

Recorded GI50 (compound `O=C1CCCc2c(O)ccc(O)c21` ): > 100 µM (inactive)

Recorded GI50 (compound `CC(C)=CCC[C@@H](C)C1=C(O)C(=O)C(C)=C(Nc2ccccc2I)C1=O` ): 7.59 µM (inactive)

Recorded GI50 (compound `Cc1cc(C)c2c(O)cc(-c3cccc4ccccc34)nc2n1` ): 10 µM (inactive)

Recorded GI50 (compound `N#Cc1[nH]c(=O)n(-c2cccc3ccccc23)c1N` ): > 10 µM (inactive)

Recorded GI50 (compound CCCCCC(C)C[C@H]1CO[C@H](c2ccc[nH]2)N[C@H]1C(=O)OC (stereo partly specified) ): > 100 µM (inactive)

---

Test system: M19-MEL
METHOD DESCRIPTION: NCI tumour cell line growth inhibition, 48 h
The source made the active and inactive calls. Rule as the data show it: active = GI50 up to about 1.1 µM and inactive = higher.
I'd be grateful if you could share measured GI50 for these entries.

Recorded GI50 (molecule `COc1cc(CNc2nc3ccc(C(F)(F)F)cc3nc2-c2ccccc2)cc(OC)c1OC` ): 46.2 µM (inactive)

Recorded GI50 (molecule `Cc1cc(OC(=O)c2c(C)cc(OC(=O)c3c(C)cc(O)cc3O)cc2O)cc(O)c1C(=O)O` ): > 100 µM (inactive)

Recorded GI50 (molecule `Cc1cc(N(CCC#N)CCC#N)ccc1/C=C1N=C(/C=C\c2ccccc2)N(c2ccc(Cl)cc2)C\1=O` ): 1.57 µM (inactive)

Recorded GI50 (molecule `CCN(CC)c1c(C(=O)/C=C/c2ccc(Cl)cc2)c(-c2ccccc2)nn(C)c1=O` ): 1.69 µM (inactive)
